Tested on: PC9-OSIMR cells
Assay: MTT IC50 on Osimertinib-resistant PC9 cells
Format: cell-based
Conditions: Homo sapiens, PC-9; PC9-OSIMR; read-out: IC50 MTT
RECORDED METRIC: IC50 (µM)

compound="C=CC(=O)Nc1cc(Nc2nccc(-c3cn(C)c4ccccc34)n2)c(OC)cc1N(C)CCN(C)C [Osimertinib, reference compound]" unit_abbrev=µM recorded_result=5.25

----------
Target: Yap1:Oct4 interaction (Homo sapiens, UniProt P46937)
Sequence (P46937 whole entry): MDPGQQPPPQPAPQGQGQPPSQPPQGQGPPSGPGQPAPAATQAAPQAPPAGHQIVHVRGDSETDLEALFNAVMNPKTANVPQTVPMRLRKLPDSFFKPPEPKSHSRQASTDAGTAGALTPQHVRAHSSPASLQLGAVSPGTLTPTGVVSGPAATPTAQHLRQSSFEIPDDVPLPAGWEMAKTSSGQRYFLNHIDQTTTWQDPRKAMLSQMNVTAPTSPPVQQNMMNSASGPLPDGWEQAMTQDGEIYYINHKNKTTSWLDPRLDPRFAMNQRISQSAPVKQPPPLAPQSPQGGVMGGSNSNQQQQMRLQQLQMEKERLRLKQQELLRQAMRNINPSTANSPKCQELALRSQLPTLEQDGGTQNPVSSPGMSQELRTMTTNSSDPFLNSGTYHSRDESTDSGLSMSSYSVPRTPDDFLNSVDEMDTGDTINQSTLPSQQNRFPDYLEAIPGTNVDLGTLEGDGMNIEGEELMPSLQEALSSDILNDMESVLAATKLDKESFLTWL
Assay: Yap1:Oct4 interaction (in vitro binding assay)
Conditions: FIG. 1
We label by threshold. Values of IC50 strictly beneath 800 nM are Condition met. Values of 800 nM and up are Condition not met.

compound="O=C(CC1CCN(CCCc2cccc(F)c2)CC1)Nc1ccc(OCc2ccccc2)cc1 [SR7-057]" system_under_test="Yap1:Oct4 interaction (Homo sapiens, UniProt P46937)" class_label="Condition met"
compound="CCOc1ccc(CCCN2CCC(CC(=O)N[C@@H](Cc3cccc(OC)c3)C(=O)OC)CC2)cc1 [SR7-042]" system_under_test="Yap1:Oct4 interaction (Homo sapiens, UniProt P46937)" class_label="Condition not met"
compound="COC(=O)[C@H](Cc1ccc(OC)cc1)NC(=O)CC1CCN(CCCc2cccc(F)c2)CC1 [SR7-067]" system_under_test="Yap1:Oct4 interaction (Homo sapiens, UniProt P46937)" class_label="Condition not met"
compound="N#Cc1ccc(CCCN2CCC(CC(=O)Nc3ccc(OCc4ccccc4)cc3)CC2)cc1 [SR7-061]" system_under_test="Yap1:Oct4 interaction (Homo sapiens, UniProt P46937)" class_label="Condition not met"
compound="CCOc1ccc(CCCN2CCC(CC(=O)N[C@@H](Cc3ccc(OCc4ccccc4)cc3)C(=O)OC)CC2)cc1 [SR6-087]" system_under_test="Yap1:Oct4 interaction (Homo sapiens, UniProt P46937)" class_label="Condition met"
compound="COC(=O)[C@H](Cc1cccc(OC)c1)NC(=O)CC1CCN(CCC(C)(C)C)CC1 [SR7-055]" system_under_test="Yap1:Oct4 interaction (Homo sapiens, UniProt P46937)" class_label="Condition not met"
compound="COC(=O)[C@H](Cc1ccc(OCc2ccccc2)cn1)NC(=O)CC1CCN(C(=O)CCc2ccc(Cl)c(Cl)c2)CC1 [SR6-095]" system_under_test="Yap1:Oct4 interaction (Homo sapiens, UniProt P46937)" class_label="Condition not met"
